Give Kp at 1 h for every item shown.
Assay: Serum and intratumor drug concentration at experimental endpoint, DLD1 model
Type: in vivo, mice
Settings: Swiss Nu/nu, mouse, tumor vs serum, oral, single drug; DLD1 model; read-out: ratio tumor vs serum
Description: At the experimental endpoint, plasma and tumors were collected 1h post‐treatment and part of the tumor tissue was used to determine the intratumor drug concentrations. Plasma and tumor samples were analyzed using the same LC‐MS/MS method used for drug determination in DBS. […] Plasma samples were spotted onto the same paper used for whole blood analysis and were extracted and analyzed using the same methods as used for DBS.
Give a plain numeric answer without units written out.

Give its Kp at 1 h value. Item: CCCS(=O)(=O)Nc1ccc(F)c(C(=O)c2c[nH]c3ncc(-c4ccc(Cl)cc4)cc23)c1F
1.28

Give its Kp at 1 h value. Item: CNC(=O)c1cc(Oc2ccc(NC(=O)Nc3ccc(Cl)c(C(F)(F)F)c3)c(F)c2)ccn1
1.76

Give its Kp at 1 h value. Item: C#Cc1cccc(Nc2ncnc3cc(OCCOC)c(OCCOC)cc23)c1
1.55

Give its Kp at 1 h value. Item: Cn1cnc2c(F)c(Nc3ccc(Br)cc3Cl)c(C(=O)NOCCO)cc21
0.79

---

experiment: Pharmacokinetics, dried blood spot LC-MS/MS, mice with SW620 tumors; format: in vivo; conditions: Swiss Nu/nu, mouse, whole blood (dried blood spot), po, mono; whole blood; oral; regorafenib 30, vemurafenib 75, GDC-0994 10 mg/kg; mean ± SD; read-out: AUC0-24h
Give AUC(0-t) for every item shown.
Your answer should be a plain number; it is taken to be in ng·h/mL.

Give its AUC(0-t) value. Item: Cn1cnc2c(F)c(Nc3ccc(Br)cc3Cl)c(C(=O)NOCCO)cc21 [selumetinib]
770

Give its AUC(0-t) value. Item: CCCS(=O)(=O)Nc1ccc(F)c(C(=O)c2c[nH]c3ncc(-c4ccc(Cl)cc4)cc23)c1F [vemurafenib]
19400

Give its AUC(0-t) value. Item: CNC(=O)c1cc(Oc2ccc(NC(=O)Nc3ccc(Cl)c(C(F)(F)F)c3)c(F)c2)ccn1 [regorafenib]
9860

---

assay: Pharmacokinetics, dried blood spot LC-MS/MS, mice with DLD1 tumors; assay type: in vivo; conditions: Swiss Nu/nu, mouse, whole blood (dried blood spot), po, mono; whole blood; oral; regorafenib 15, erlotinib 12.5, selumetinib 5, vemurafenib 75 mg/kg; mean ± SD; read-out: AUC0-24h
Give AUC(0-t) for every item shown.
Your answer should be a plain number; it is taken to be in ng·h/mL.

Give its AUC(0-t) value. Item: CNC(=O)c1cc(Oc2ccc(NC(=O)Nc3ccc(Cl)c(C(F)(F)F)c3)c(F)c2)ccn1 [regorafenib]
17500

Give its AUC(0-t) value. Item: CCCS(=O)(=O)Nc1ccc(F)c(C(=O)c2c[nH]c3ncc(-c4ccc(Cl)cc4)cc23)c1F [vemurafenib]
2180

Give its AUC(0-t) value. Item: Cn1cnc2c(F)c(Nc3ccc(Br)cc3Cl)c(C(=O)NOCCO)cc21 [selumetinib]
15200

Give its AUC(0-t) value. Item: C#Cc1cccc(Nc2ncnc3cc(OCCOC)c(OCCOC)cc23)c1 [erlotinib]
19600

---

test: Pharmacokinetics, dried blood spot LC-MS/MS, mice with DLD1 tumors; type: in vivo; details: Swiss Nu/nu, mouse, whole blood (dried blood spot), po, mono; whole blood; regorafenib 15, erlotinib 12.5, selumetinib 5, vemurafenib 75 mg/kg; mean ± SD
Give Cmax for every item shown.

Give its Cmax value. Item: CCCS(=O)(=O)Nc1ccc(F)c(C(=O)c2c[nH]c3ncc(-c4ccc(Cl)cc4)cc23)c1F
270 ng/mL

Give its Cmax value. Item: CNC(=O)c1cc(Oc2ccc(NC(=O)Nc3ccc(Cl)c(C(F)(F)F)c3)c(F)c2)ccn1
1190 ng/mL

Give its Cmax value. Item: C#Cc1cccc(Nc2ncnc3cc(OCCOC)c(OCCOC)cc23)c1
2610 ng/mL

Give its Cmax value. Item: Cn1cnc2c(F)c(Nc3ccc(Br)cc3Cl)c(C(=O)NOCCO)cc21
1220 ng/mL

---

test: Serum and intratumor drug concentration at experimental endpoint, SW620 model; type: in vivo, mice; conditions: Swiss Nu/nu, mouse, tumor (SW620), oral, single drug; SW620 tumor, 1h post-treatment at endpoint (day 19); doses as E164; read-out: concentration tumor
Give concentration at 1 h for every item shown.
Your answer should be a plain number; it is taken to be in ng/g.

Give its concentration at 1 h value. Item: CNC(=O)c1cc(Oc2ccc(NC(=O)Nc3ccc(Cl)c(C(F)(F)F)c3)c(F)c2)ccn1 [regorafenib]
1330

Give its concentration at 1 h value. Item: Cn1nccc1Nc1nccc(-c2ccn([C@H](CO)c3ccc(Cl)c(F)c3)c(=O)c2)n1 [GDC-0994]
12700

Give its concentration at 1 h value. Item: Cn1cnc2c(F)c(Nc3ccc(Br)cc3Cl)c(C(=O)NOCCO)cc21 [selumetinib]
560

---

test: Serum and intratumor drug concentration at experimental endpoint, DLD1 model; type: in vivo, mice; settings: Swiss Nu/nu, mouse, tumor (DLD1), oral, single drug; DLD1 tumor, 1h post-treatment at endpoint (day 15); doses as E156; read-out: concentration tumor
reported property: concentration at 1 h (ng/g)
Your answer should be a plain number; it is taken to be in ng/g.

Give its concentration at 1 h value. Item: Cn1cnc2c(F)c(Nc3ccc(Br)cc3Cl)c(C(=O)NOCCO)cc21
1980

Give its concentration at 1 h value. Item: CNC(=O)c1cc(Oc2ccc(NC(=O)Nc3ccc(Cl)c(C(F)(F)F)c3)c(F)c2)ccn1
1540

Give its concentration at 1 h value. Item: C#Cc1cccc(Nc2ncnc3cc(OCCOC)c(OCCOC)cc23)c1
3620

Give its concentration at 1 h value. Item: CCCS(=O)(=O)Nc1ccc(F)c(C(=O)c2c[nH]c3ncc(-c4ccc(Cl)cc4)cc23)c1F
790

---

Give AUC(0-t) for every item shown.
test: Pharmacokinetics, dried blood spot LC-MS/MS, mice with DLD1 tumors; type: in vivo; details: Swiss Nu/nu, mouse, whole blood (dried blood spot), po, given as part of DLD1-specific ODC; whole blood; oral; regorafenib 15, erlotinib 12.5, selumetinib 5, vemurafenib 75 mg/kg; mean ± SD; read-out: AUC0-24h
Your answer should be a plain number; it is taken to be in ng·h/mL.

Give its AUC(0-t) value. Item: CNC(=O)c1cc(Oc2ccc(NC(=O)Nc3ccc(Cl)c(C(F)(F)F)c3)c(F)c2)ccn1 [regorafenib]
49400

Give its AUC(0-t) value. Item: Cn1cnc2c(F)c(Nc3ccc(Br)cc3Cl)c(C(=O)NOCCO)cc21 [selumetinib]
24800

Give its AUC(0-t) value. Item: C#Cc1cccc(Nc2ncnc3cc(OCCOC)c(OCCOC)cc23)c1 [erlotinib]
22300

Give its AUC(0-t) value. Item: CCCS(=O)(=O)Nc1ccc(F)c(C(=O)c2c[nH]c3ncc(-c4ccc(Cl)cc4)cc23)c1F [vemurafenib]
14400

---

test: Pharmacokinetics, dried blood spot LC-MS/MS, mice with SW620 tumors; assay type: in vivo; conditions: mice bearing SW620 tumors, AUC0-24h
reported property: increase of AUC as part of the ODC vs single-drug treatment (x)
Your answer should be a plain number; it is taken to be in x.

Give its increase of AUC as part of the ODC vs single-drug treatment value. Item: Cn1nccc1Nc1nccc(-c2ccn([C@H](CO)c3ccc(Cl)c(F)c3)c(=O)c2)n1
1.4

Give its increase of AUC as part of the ODC vs single-drug treatment value. Item: Cn1cnc2c(F)c(Nc3ccc(Br)cc3Cl)c(C(=O)NOCCO)cc21
1.2

Give its increase of AUC as part of the ODC vs single-drug treatment value. Item: CNC(=O)c1cc(Oc2ccc(NC(=O)Nc3ccc(Cl)c(C(F)(F)F)c3)c(F)c2)ccn1
2.2

Give its increase of AUC as part of the ODC vs single-drug treatment value. Item: CCCS(=O)(=O)Nc1ccc(F)c(C(=O)c2c[nH]c3ncc(-c4ccc(Cl)cc4)cc23)c1F
2.5
